# testTarget: PSG (PSD-95)
# assayMethodText: FP displacement (competition) of FITC-15 AA CRIPT by library peptide, IC50 and Ki
# conditionLabel: read-out: IC50 (µM), PSG; FP displacement of FITC-15 AA CRIPT probe by PSD library peptide; protein PSG (wild type)
IC50 strictly less than 500 µM = met. Otherwise not met.

Past entries and their recorded results:
chemicalstring=CC(=O)N[C@@H](Cc1ccc(O)cc1)C(=O)N1CCC[C@H]1C(=O)N[C@@H](CCC(N)=O)C(=O)N[C@@H](Cc1c[nH]cn1)C(=O)N[C@@H](CC(C)C)C(=O)N[C@@H](CCCNC(=N)N)C(=O)N[C@H](C(=O)N[C@@H](C)C(=O)N[C@@H](CO)C(=O)N[C@@H](CCCCN)C(=O)N[C@@H](CC(N)=O)C(=O)N[C@@H](CCC(=O)O)C(=O)N[C@H](C(=O)N[C@H](C(=O)N[C@H](C(=O)O)C(C)C)[C@@H](C)O)C(C)C)[C@@H](C)O discretelabel="not met"
chemicalstring=CC[C@H](C)[C@H](NC(=O)[C@H](CCCCN)NC(=O)[C@@H]1CCCN1C(=O)[C@H](CC(C)C)NC(=O)[C@H](CCCNC(=N)N)NC(=O)[C@H](Cc1c[nH]cn1)NC(=O)[C@H](CO)NC(=O)CNC(=O)[C@H](CC(=O)O)NC(=O)[C@H](Cc1ccc(O)cc1)NC(C)=O)C(=O)N[C@@H](CCCCN)C(=O)N[C@@H](CCC(=O)O)C(=O)N[C@H](C(=O)N[C@H](C(=O)N[C@H](C(=O)O)C(C)C)[C@@H](C)O)[C@@H](C)O discretelabel=met
chemicalstring=CC[C@H](C)[C@H](NC(=O)[C@H](CO)NC(=O)[C@@H]1CCCN1C(=O)[C@H](CCSC)NC(=O)[C@H](CCCCN)NC(=O)[C@H](CCCCN)NC(=O)[C@H](Cc1ccc(O)cc1)NC(=O)[C@@H](NC(=O)[C@H](CCCNC(=N)N)NC(=O)[C@H](CCCNC(=N)N)NC(=O)[C@H](Cc1ccc(O)cc1)NC(C)=O)C(C)C)C(=O)N[C@@H](CCC(=O)O)C(=O)N[C@@H](CO)C(=O)N[C@@H](CC(=O)O)C(=O)N[C@H](C(=O)O)C(C)C discretelabel=met
chemicalstring=CC(=O)N[C@@H](Cc1ccc(O)cc1)C(=O)N[C@@H](Cc1c[nH]cn1)C(=O)N1CCC[C@H]1C(=O)N[C@@H](Cc1c[nH]cn1)C(=O)N1CCC[C@H]1C(=O)N[C@@H](Cc1c[nH]cn1)C(=O)N1CCC[C@H]1C(=O)N[C@@H](Cc1c[nH]cn1)C(=O)N[C@@H](CO)C(=O)N[C@@H](Cc1c[nH]cn1)C(=O)N[C@@H](CO)C(=O)N[C@H](C(=O)N[C@H](C(=O)N[C@@H](CCCNC(=N)N)C(=O)N[C@H](C(=O)O)C(C)C)[C@@H](C)O)[C@@H](C)O discretelabel=met

Then there is this compound:
In the record for CC[C@H](C)[C@H](NC(=O)[C@H](CC(N)=O)NC(=O)CNC(=O)CNC(=O)[C@H](CO)NC(=O)[C@H](Cc1ccc(O)cc1)NC(=O)[C@H](CCC(=O)O)NC(=O)[C@@H]1CCCN1C(=O)[C@H](Cc1ccc(O)cc1)NC(C)=O)C(=O)N[C@H](C(=O)N[C@@H](CCCNC(=N)N)C(=O)N[C@H](C(=O)N[C@@H](CO)C(=O)N[C@@H](C)C(=O)N[C@@H](CC(C)C)C(=O)O)C(C)C)C(C)C , is IC50 less than 500 µM?
not met
